B1: Arabidopsis thaliana cryptochrome 2 (CRY2, UniProt Q96524), residues 1-535 fused after the Gal4 DNA-binding domain (Gal4BD-CRY2(535)); mutagenized window 321-412, Q96524 (parent)
chain: MKMDKKTIVWFRRDLRIEDNPALAAAAHEGSVFPVFIWCPEEEGQFYPGRASRWWMKQSLAHLSQSLKALGSDLTLIKTHNTISAILDCIRVTGATKVVFNHLYDPVSLVRDHTVKEKLVERGISVQSYNGDLLYEPWEIYCEKGKPFTSFNSYWKKCLDMSIESVMLPPPWRLMPITAAAEAIWACSIEELGLENEAEKPSNALLTRAWSPGWSNADKLLNEFIEKQLIDYAKNSKKVVGNSTSLLSPYLHFGEISVRHVFQCARMKQIIWARDKNSEGEESADLFLRGIGLREYSRYICFNFPFTHEQSLLSHLRFFPWDADVDKFKAWRQGRTGYPLVDAGMRELWATGWMHNRIRVIVSSFAVKFLLLPWKWGMKYFWDTLLDADLECDILGWQYISGSIPDGHELDRLDNPALQGAKYDPEGEYIRQWLPELARLPTEWIHHPWDAPLTVLKASGVELGTNYAKPIVDIDTARELLAKAISRTREAQIMIGAAPDEIVADSFEALGANTIKEPGLCPSVSSNDQQVPSAV

# Variants of: B1
# Protocol text: yeast two-hybrid growth selection (MaV203; Gal4BD-CRY2(1-535) library x Gal4AD-CIB1; URA3 reporter on SC -Trp/-Leu/-Ura) in the dark, deep sequencing before and after selection, Enrich2 scoring; three independent screens (one at 48 h, two …)
# Condition set: with CIB1 (CRYPTOCHROME-INTERACTING BASIC-HELIX-LOOP-HELIX 1), dark (no blue light), screens 1, 3 and 4, Svar > 0 = enriched under dark selection for CRY2-CIB1 two-hybrid growth (URA3 reporter), < 0 = depleted, relative to wild type (whose scores are 0). 'The Enrich2 software calculates, parent: 0, not an affinity, scale: Enrich2 score, numbering: uniprot, sequence starts at 1
One threshold, -1, splits the recorded enrichment values: lower ones are T, equal or higher ones are F.

Variant designation | Class name
N356H | F

IN: Regarding A343P , kindly confirm whether its enrichment is beneath -1.
OUT: T

IN: Regarding A366V , kindly confirm whether its enrichment is beneath -1.
OUT: F

IN: Regarding Y380N , kindly confirm whether its enrichment is beneath -1.
OUT: T

IN: Regarding W331R , kindly confirm whether its enrichment is beneath -1.
OUT: T
